- System: Candida parapsilosis
- Assay Procedure: Antifungal activity against Candida parapsilosis GIM 2.190 assessed as fungal growth inhibition by CLSI based serial microbroth dilution method
- Type: functional
- Condition Label: Lodderomyces parapsilosis
Result Type: MIC

Consider the following illustrative entries.
Fc1cccc(F)c1CC1(Cn2ccnn2)COC(c2ccc(-c3ccsc3)cc2)=N1 (centres undefined) | > 64 µg/mL
c1ccc(CC2(Cn3ccnc3)COC(c3ccc(-c4cncnc4)cc3)=N2)cc1 (centres undefined) | > 64 µg/mL
c1ccc(CC2(Cn3ccnc3)COC(c3cc4ccccc4s3)=N2)cc1 (centres undefined) | > 64 µg/mL
CC(C)(C)c1ccc(CC2(Cn3ccnc3)COC(c3ccc(-c4ccsc4)cc3)=N2)cc1 (centres undefined) | > 64 µg/mL
CCC(C)n1ncn(-c2ccc(N3CCN(c4ccc(OCC5COC(Cn6cncn6)(c6ccc(Cl)cc6Cl)O5)cc4)CC3)cc2)c1=O (centres undefined) | 0.125 µg/mL

# batch size: 8; output MIC per entry
1. Fc1cccc(F)c1CC1(Cn2cncn2)COC(c2ccc(-c3ccsc3)cc2)=N1 (centres undefined)
2. Clc1ccc(CC2(Cn3ccnc3)COC(c3ccc(-c4ccsc4)cc3)=N2)cc1 (centres undefined)
3. FC(F)(F)c1ccccc1CC1(Cn2ccnc2)COC(c2ccc(-c3ccsc3)cc2)=N1 (centres undefined)
4. Clc1ccccc1CC1(Cn2ccnc2)COC(c2ccc(-c3ccsc3)cc2)=N1 (centres undefined)
5. c1ccc(CC2(Cn3ccnc3)COC(c3noc4c3CCc3ccccc3-4)=N2)cc1 (centres undefined)
6. Fc1ccc(CC2(Cn3ccnc3)COC(c3ccc(-c4ccsc4)cc3)=N2)cc1F (centres undefined)
7. Fc1cccc(F)c1CC1(Cn2ccnc2)COC(c2ccc(-c3ccsc3)cc2)=N1 (centres undefined)
8. FC(F)(F)Oc1ccc(CC2(Cn3ccnc3)COC(c3ccc(-c4ccsc4)cc3)=N2)cc1 (centres undefined)

Key:
0.125 µg/mL
> 64 µg/mL
> 64 µg/mL
1 µg/mL
> 64 µg/mL
> 64 µg/mL
0.125 µg/mL
> 64 µg/mL

---

- Tested on: Candida albicans
- Assay Procedure: Antifungal activity against FLC-resistant Candida albicans 100 assessed as fungal growth inhibition by CLSI based serial microbroth dilution method
- Assay type: functional
Result Type: MIC (µg/mL)
One number for each entry, in µg/mL.

Fc1ccccc1CC1(Cn2ccnc2)COC(c2ccc(-c3ccsc3)cc2)=N1 (stereo not given) | 2
Fc1cccc(F)c1CC1(Cn2cncn2)COC(c2ccc(-c3ccsc3)cc2)=N1 (stereo not given) | 1
c1ccc(CC2(Cn3ccnc3)COC(c3ccc(-c4ccsc4)cc3)=N2)cc1 (stereo not given) | 2

Could you now look at the following compound, please?
Exercise: Data request, read-out MIC, for Fc1cccc(F)c1CC1(Cn2ccnc2)COC(c2ccc(-c3ccsc3)cc2)=N1 (stereo not given)
Key: 4

---

Please go through the items and note down their MIC.
- Test system: Nakaseomyces glabratus
- Assay Procedure: Antifungal activity against Candida glabrata clinical isolate assessed as fungal growth inhibition by CLSI based serial microbroth dilution method
- Format: functional

FC(F)(F)c1ccccc1CC1(Cn2ccnc2)COC(c2ccc(-c3ccsc3)cc2)=N1 (stereo not given) | 16 µg/mL
CC(C)(C)c1ccc(CC2(Cn3ccnc3)COC(c3ccc(-c4ccsc4)cc3)=N2)cc1 (stereo not given) | > 64 µg/mL
c1ccc(CC2(Cn3ccnc3)COC(c3cc4ccccc4s3)=N2)cc1 (stereo not given) | > 64 µg/mL
Fc1cccc(F)c1CC1(Cn2ccnc2)COC(c2ccc(-c3ccsc3)cc2)=N1 (stereo not given) | 0.06 µg/mL
c1ccc(CC2(Cn3ccnc3)COC(c3cc4ccccc4o3)=N2)cc1 (stereo not given) | > 64 µg/mL
Brc1ccc(C2=NC(Cc3ccccc3)(Cn3ccnc3)CO2)cc1 (stereo not given) | > 64 µg/mL
Fc1cccc(CC2(Cn3ccnc3)COC(c3ccc(-c4ccsc4)cc3)=N2)c1 (stereo not given) | > 64 µg/mL
CC(C)c1ccc(CC2(Cn3ccnc3)COC(c3ccc(-c4ccsc4)cc3)=N2)cc1 (stereo not given) | > 64 µg/mL
Fc1ccccc1CC1(Cn2ccnc2)COC(c2ccc(-c3ccsc3)cc2)=N1 (stereo not given) | 16 µg/mL
c1ccc(CC2(Cn3ccnc3)COC(c3cc(-c4ccccc4)on3)=N2)cc1 (stereo not given) | > 64 µg/mL

# batch size: 5; output MIC per entry
1. Fc1ccc(CC2(Cn3ccnc3)COC(c3ccc(-c4ccsc4)cc3)=N2)cc1F (stereo not given)
2. FC(F)(F)Oc1ccc(CC2(Cn3ccnc3)COC(c3ccc(-c4ccsc4)cc3)=N2)cc1 (stereo not given)
3. Clc1cccc(CC2(Cn3ccnc3)COC(c3ccc(-c4ccsc4)cc3)=N2)c1 (stereo not given)
4. c1ccc(COc2ccc(C3=NC(Cc4ccccc4)(Cn4ccnc4)CO3)cc2)cc1 (stereo not given)
5. c1ccc(CC2(Cn3ccnc3)COC(c3ccc(-c4ccsc4)cc3)=N2)cc1 (stereo not given)

Key:
> 64 µg/mL
> 64 µg/mL
> 64 µg/mL
> 64 µg/mL
> 64 µg/mL

---

- Assay Procedure: Stability of the compound in human plasma assessed as parent compound remaining after […] by LC-MS/MS analysis
- Format: ADME, cell-free
- Condition Label: read-out: Stability
Result Type: remaining

Fc1cccc(F)c1CC1(Cn2ccnc2)COC(c2ccc(-c3ccsc3)cc2)=N1 (configuration not stated) | 88.5%

Could you now look at the following compound, please?
Exercise: Data request, read-out remaining, for Fc1cccc(F)c1CC1(Cn2cncn2)COC(c2ccc(-c3ccsc3)cc2)=N1 (configuration not stated)
Key: 96.8%

---

- Assay Procedure: Cytotoxicity against human HepG2 cells assessed as reduction in cell viability incubated for 96 hrs by MTT assay
- Type: toxicity, cell-based
Please go through the items and note down their IC50 at 96 h.

OC(Cn1cncn1)(Cn1cncn1)c1ccc(F)cc1F | > 50 µM
Fc1cccc(F)c1CC1(Cn2ccnc2)COC(c2ccc(-c3ccsc3)cc2)=N1 (stereo not drawn) | 34.2 µM

Could you now look at the following molecule, please?
Exercise: Data request, read-out IC50 at 96 h, for Fc1cccc(F)c1CC1(Cn2cncn2)COC(c2ccc(-c3ccsc3)cc2)=N1 (stereo not drawn)
Key: 39.3 µM

---

- Test system: Nakaseomyces glabratus
- Assay Procedure: Antifungal activity against Candida glabrata clinical isolate assessed as fungal growth inhibition by CLSI based serial microbroth dilution method
- Format: functional
Result Type: MIC

Consider the following illustrative entries.
Fc1cccc(F)c1CC1(Cn2cncn2)COC(c2ccc(-c3ccsc3)cc2)=N1 (stereo not given) | 0.06 µg/mL
FC(F)(F)c1ccc(CC2(Cn3ccnc3)COC(c3ccc(-c4ccsc4)cc3)=N2)cc1 (stereo not given) | > 64 µg/mL
Clc1ccc(CC2(Cn3ccnc3)COC(c3ccc(-c4ccsc4)cc3)=N2)c(Cl)c1 (stereo not given) | > 64 µg/mL
Fc1cc(F)cc(CC2(Cn3ccnc3)COC(c3ccc(-c4ccsc4)cc3)=N2)c1 (stereo not given) | > 64 µg/mL
FC(F)(F)c1cccc(CC2(Cn3ccnc3)COC(c3ccc(-c4ccsc4)cc3)=N2)c1 (stereo not given) | > 64 µg/mL

# batch size: 4; output MIC per entry
1. c1ccc(CC2(Cn3ccnc3)COC(c3noc4c3CCc3ccccc3-4)=N2)cc1 (stereo not given)
2. Cc1cccc(CC2(Cn3ccnc3)COC(c3ccc(-c4ccsc4)cc3)=N2)c1 (stereo not given)
3. c1ccc(CC2(Cn3ccnc3)COC(c3ccc4ccccc4c3)=N2)cc1 (stereo not given)
4. Fc1cccc(F)c1CC1(Cn2ccnn2)COC(c2ccc(-c3ccsc3)cc2)=N1 (stereo not given)

Key:
["16 µg/mL", "> 64 µg/mL", "> 64 µg/mL", "> 64 µg/mL"]

Exercise: Find the measured MIC: item Clc1ccccc1CC1(Cn2ccnc2)COC(c2ccc(-c3ccsc3)cc2)=N1 (stereo not given) , target or system Nakaseomyces glabratus.
Key: 16 µg/mL

---

Please go through the items and note down their MIC.
- Test system: Candida parapsilosis
- Assay Procedure: Antifungal activity against Candida parapsilosis GIM 2.190 assessed as fungal growth inhibition by CLSI based serial microbroth dilution method
- Type: functional
- Condition Label: Lodderomyces parapsilosis

Consider the following illustrative entries.
c1ccc(CC2(Cn3ccnc3)COC(c3ccc(-c4ccsc4)cc3)=N2)cc1 (stereo not given) | 0.5 µg/mL
c1ccc(CC2(Cn3ccnc3)COC(c3ccc4ccccc4c3)=N2)cc1 (stereo not given) | > 64 µg/mL
OC(Cn1cncn1)(Cn1cncn1)c1ccc(F)cc1F | 2 µg/mL
FC(F)(F)c1cccc(CC2(Cn3ccnc3)COC(c3ccc(-c4ccsc4)cc3)=N2)c1 (stereo not given) | > 64 µg/mL
Clc1ccc(CC2(Cn3ccnc3)COC(c3ccc(-c4ccsc4)cc3)=N2)c(Cl)c1 (stereo not given) | > 64 µg/mL
c1ccc(CC2(Cn3ccnc3)COC(c3ccc4c(c3)OCO4)=N2)cc1 (stereo not given) | > 64 µg/mL

# batch size: 4; output MIC per entry
1. Fc1ccccc1CC1(Cn2ccnc2)COC(c2ccc(-c3ccsc3)cc2)=N1 (stereo not given)
2. CC(C)c1ccc(CC2(Cn3ccnc3)COC(c3ccc(-c4ccsc4)cc3)=N2)cc1 (stereo not given)
3. c1ccc(CC2(Cn3ccnc3)COC(c3ccc(-c4ccoc4)cc3)=N2)cc1 (stereo not given)
4. Cc1cccc(CC2(Cn3ccnc3)COC(c3ccc(-c4ccsc4)cc3)=N2)c1 (stereo not given)

Key:
0.5 µg/mL
> 64 µg/mL
> 64 µg/mL
> 64 µg/mL
